Target: UniProtKB P30542
Sequence (whole entry): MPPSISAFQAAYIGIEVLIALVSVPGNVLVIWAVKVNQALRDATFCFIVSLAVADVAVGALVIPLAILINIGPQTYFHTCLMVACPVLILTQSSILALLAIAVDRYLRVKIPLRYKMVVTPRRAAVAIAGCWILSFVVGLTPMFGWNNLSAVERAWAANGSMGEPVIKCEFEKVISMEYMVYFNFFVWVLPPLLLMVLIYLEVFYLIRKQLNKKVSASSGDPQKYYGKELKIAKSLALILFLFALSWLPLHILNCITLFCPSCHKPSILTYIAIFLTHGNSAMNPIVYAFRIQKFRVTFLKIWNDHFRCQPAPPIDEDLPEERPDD
Experiment: Allosteric enhancement of human adenosine A1 receptor expressed in CHO cells assessed as inhibition of forskolin-stimulated cAMP production at 10 uM preincubated for 10 mins followed by forskolin challenge measured after 5 mins by scintillation counting analysis relative to control
Type: functional, cell-based
recorded_metric: inhibition (%)
Expressed in %, but write only the number.

Consider the reported inhibition for these compounds:
substance_smiles	inhibition [%]
Cc1c(-c2ccccc2)sc(N)c1C(=O)c1ccc(Cl)cc1	18
CC(C)(C)Cc1c(-c2ccccn2)sc(N)c1C(=O)c1ccc(Cl)cc1	40

// field: inhibition; key: Cc1csc(N)c1C(=O)c1ccc(Cl)cc1 ; value = 16

// field: inhibition; key: COc1ccc(-c2sc(N)c(C(=O)c3ccc(Cl)c(Cl)c3)c2CC(C)(C)C)cc1 ; value = 54

// field: inhibition; key: CC(C)(C)Cc1c(-c2ccccc2)sc(N)c1C(=O)c1cccc(Cl)c1 ; value = 59

// field: inhibition; key: CC(C)(C)Cc1csc(N)c1C(=O)c1cccc(Cl)c1 ; value = 45

// field: inhibition; key: CC(C)(C)Cc1c(-c2cn[nH]c2)sc(N)c1C(=O)c1ccc(Cl)cc1 ; value = 27

// field: inhibition; key: CC(C)(C)Cc1c(-c2ccc(OC(F)(F)F)cc2)sc(N)c1C(=O)c1ccc(Cl)cc1 ; value = 56

// field: inhibition; key: CC(C)(C)Cc1c(-c2ccc3c(c2)OCO3)sc(N)c1C(=O)c1ccc(Cl)cc1 ; value = 61

====

Molecular target: UniProt P29274
Test: Displacement of [3H]-ZM241385 from human adenosine A2A receptor expressed in CHO cell membranes at 10 uM by scintillation counting analysis relative to control
inhibition by entry:
Expressed in %, but write only the number.

substance_smiles	quantity_unit	inhibition
COc1ccc(-c2sc(N)c(C(=O)c3cccc(Cl)c3)c2CC(C)(C)C)cc1	%	1

// field: inhibition; key: CC(C)(C)Cc1c(-c2cc(F)ccc2F)sc(N)c1C(=O)c1ccc(Cl)cc1 ; value = 1

// field: inhibition; key: CC(C)(C)Cc1c(Br)sc(N)c1C(=O)c1ccc(Cl)cc1 ; value = 2

// field: inhibition; key: CC(C)(C)Cc1c(/C=C/c2ccc(Cl)cc2)sc(N)c1C(=O)c1ccc(Cl)cc1 ; value = 1

// field: inhibition; key: CC(C)(C)Cc1c(-c2ccccc2)sc(N)c1C(=O)c1cccc(Cl)c1 ; value = 4

// field: inhibition; key: COc1ccc(-c2sc(N)c(C(=O)c3cccc(C(F)(F)F)c3)c2CC(C)(C)C)cc1 ; value = 1

// field: inhibition; key: CC(C)(C)Cc1csc(N)c1C(=O)c1ccc(Cl)cc1 ; value = 6

====

inhibition by entry:
Target: Adenosine receptor A1 (Homo sapiens)
Assay: Allosteric enhancement of human adenosine A1 receptor expressed in CHO cells assessed as inhibition of forskolin-stimulated cAMP production at 10 uM preincubated for 10 mins followed by forskolin challenge measured after 5 mins by scintillation counting analysis relative to control
Format: functional, cell-based
Expressed in %, but write only the number.

substance_smiles	test_system	recorded_metric	recorded_result
COc1ccc(-c2sc(N)c(C(=O)c3ccc(Cl)cc3)c2C)cc1	Adenosine receptor A1 (Homo sapiens)	inhibition	24
Nc1sc(-c2ccccc2)c(-c2ccccc2)c1C(=O)c1ccc(Cl)cc1	Adenosine receptor A1 (Homo sapiens)	inhibition	24
CC(C)(C)Cc1c(-c2ccccc2)sc(N)c1C(=O)c1ccc(Cl)cc1	Adenosine receptor A1 (Homo sapiens)	inhibition	51
CC(C)(C)Cc1c(-c2ccc(Cl)cc2)sc(N)c1C(=O)c1ccc(Cl)cc1	Adenosine receptor A1 (Homo sapiens)	inhibition	57
CC(C)(C)Cc1c(-c2cccnc2)sc(N)c1C(=O)c1ccc(Cl)cc1	Adenosine receptor A1 (Homo sapiens)	inhibition	37

// field: inhibition; key: CC(C)(C)Cc1c(Br)sc(N)c1C(=O)c1cccc(C(F)(F)F)c1 ; value = 49

====

Molecular target: Adenosine receptor A1 (Homo sapiens)
Sequence (whole entry): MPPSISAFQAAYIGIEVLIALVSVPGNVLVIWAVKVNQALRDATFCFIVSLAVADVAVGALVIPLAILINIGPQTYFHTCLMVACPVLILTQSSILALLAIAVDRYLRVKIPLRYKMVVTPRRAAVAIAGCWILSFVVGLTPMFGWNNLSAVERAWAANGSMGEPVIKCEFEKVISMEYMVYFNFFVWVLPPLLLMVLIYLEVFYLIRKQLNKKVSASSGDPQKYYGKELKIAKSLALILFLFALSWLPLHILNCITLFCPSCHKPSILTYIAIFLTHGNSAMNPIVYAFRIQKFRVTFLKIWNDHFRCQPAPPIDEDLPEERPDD
Assay: Allosteric enhancement of human adenosine A1 receptor expressed in CHO cells assessed as inhibition of forskolin-stimulated cAMP production at 100 nM preincubated for 10 mins followed by forskolin challenge measured after 5 mins by scintillation counting analysis in presence of CCPA relative to control
Type: functional, cell-based
recorded_metric: inhibition (%)
Expressed in %, but write only the number.

substance_smiles	recorded_result
CC(C)(C)Cc1c(-c2ccncc2)sc(N)c1C(=O)c1ccc(Cl)cc1	46
CC(C)(C)Cc1c(Br)sc(N)c1C(=O)c1cccc(C(F)(F)F)c1	50
CC(C)(C)Cc1c(-c2ccccn2)sc(N)c1C(=O)c1ccc(Cl)cc1	43
CC(C)(C)Cc1c(Br)sc(N)c1C(=O)c1cccc(Cl)c1	48
CC(C)(C)Cc1csc(N)c1C(=O)c1cccc(C(F)(F)F)c1	30
Cc1c(Br)sc(N)c1C(=O)c1ccc(Cl)cc1	25
Cc1ccc(C(=O)c2c(N)sc(-c3ccccc3)c2CC(C)(C)C)cc1	61
CC(C)(C)Cc1c(-c2ccco2)sc(N)c1C(=O)c1ccc(Cl)cc1	47
CC(C)(C)Cc1c(-c2c(F)cccc2F)sc(N)c1C(=O)c1ccc(Cl)cc1	46
COc1ccc(-c2sc(N)c(C(=O)c3ccc(C)cc3)c2CC(C)(C)C)cc1	60

// field: inhibition; key: CC(C)(C)Cc1c(Br)sc(N)c1C(=O)c1ccc(Cl)cc1 ; value = 50

// field: inhibition; key: CC(C)(C)c1csc(N)c1C(=O)c1ccc(Cl)cc1 ; value = 18

// field: inhibition; key: Cc1ccc(C(=O)c2c(N)sc(Br)c2CC(C)(C)C)cc1 ; value = 63

// field: inhibition; key: Nc1sc(-c2ccccc2)c(-c2ccccc2)c1C(=O)c1ccc(Cl)cc1 ; value = 26

// field: inhibition; key: COc1cccc(-c2sc(N)c(C(=O)c3ccc(Cl)cc3)c2CC(C)(C)C)c1 ; value = 57

// field: inhibition; key: COc1ccc(-c2sc(N)c(C(=O)c3cccc(C(F)(F)F)c3)c2CC(C)(C)C)cc1 ; value = 46

// field: inhibition; key: Cc1cccc(-c2sc(N)c(C(=O)c3ccc(Cl)cc3)c2CC(C)(C)C)c1 ; value = 51

// field: inhibition; key: COc1ccc(-c2sc(N)c(C(=O)c3ccc(Cl)c(Cl)c3)c2CC(C)(C)C)cc1 ; value = 52

====

Molecular target: Adenosine receptor A2a (Homo sapiens) (UniProt P29274)
Sequence (P29274 whole entry): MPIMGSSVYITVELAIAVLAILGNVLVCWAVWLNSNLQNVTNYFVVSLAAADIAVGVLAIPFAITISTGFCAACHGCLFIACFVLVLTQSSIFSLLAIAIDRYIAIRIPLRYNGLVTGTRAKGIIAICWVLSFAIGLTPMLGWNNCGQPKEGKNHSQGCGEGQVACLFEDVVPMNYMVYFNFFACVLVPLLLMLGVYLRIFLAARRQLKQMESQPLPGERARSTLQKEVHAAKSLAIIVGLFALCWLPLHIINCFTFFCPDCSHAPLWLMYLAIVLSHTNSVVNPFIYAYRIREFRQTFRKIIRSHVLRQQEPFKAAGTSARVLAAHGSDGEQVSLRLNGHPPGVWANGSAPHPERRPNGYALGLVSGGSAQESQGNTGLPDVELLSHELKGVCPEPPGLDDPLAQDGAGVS
Assay: Displacement of [3H]-ZM241385 from human adenosine A2A receptor expressed in CHO cell membranes at 10 uM by scintillation counting analysis relative to control
recorded_metric: inhibition (%)
Expressed in %, but write only the number.

Consider the reported inhibition for these compounds:
substance_smiles	inhibition / %
CC(C)c1ccc(-c2sc(N)c(C(=O)c3ccc(Cl)cc3)c2CC(C)(C)C)cc1	1
CC(C)(C)Cc1c(-c2cccc(F)c2F)sc(N)c1C(=O)c1ccc(Cl)cc1	3
COCCOc1ccc(-c2sc(N)c(C(=O)c3ccc(Cl)cc3)c2CC(C)(C)C)cc1	1
CC(C)Cc1csc(N)c1C(=O)c1ccc(Cl)cc1	1
CC(C)(C)Cc1csc(N)c1C(=O)c1cccc(C(F)(F)F)c1	1
CC(C)(C)Cc1c(-c2ccccc2)sc(N)c1C(=O)c1cccc(C(F)(F)F)c1	1
CC(C)(C)Cc1c(-c2ccc(F)cc2F)sc(N)c1C(=O)c1ccc(Cl)cc1	1
CC(C)(C)Cc1c(-c2ccccc2)sc(N)c1C(=O)c1ccc(Cl)c(Cl)c1	1

// field: inhibition; key: COc1ccc(-c2sc(N)c(C(=O)c3ccc(Cl)cc3)c2CC(C)(C)C)cc1 ; value = 1

// field: inhibition; key: COc1ccccc1-c1sc(N)c(C(=O)c2ccc(Cl)cc2)c1CC(C)(C)C ; value = 1

// field: inhibition; key: CC(C)(C)Cc1c(Br)sc(N)c1C(=O)c1cccc(Cl)c1 ; value = 1
